- target: TEAD2 (Homo sapiens (Human), UniProt Q15562)
- Sequence (Q15562 whole entry): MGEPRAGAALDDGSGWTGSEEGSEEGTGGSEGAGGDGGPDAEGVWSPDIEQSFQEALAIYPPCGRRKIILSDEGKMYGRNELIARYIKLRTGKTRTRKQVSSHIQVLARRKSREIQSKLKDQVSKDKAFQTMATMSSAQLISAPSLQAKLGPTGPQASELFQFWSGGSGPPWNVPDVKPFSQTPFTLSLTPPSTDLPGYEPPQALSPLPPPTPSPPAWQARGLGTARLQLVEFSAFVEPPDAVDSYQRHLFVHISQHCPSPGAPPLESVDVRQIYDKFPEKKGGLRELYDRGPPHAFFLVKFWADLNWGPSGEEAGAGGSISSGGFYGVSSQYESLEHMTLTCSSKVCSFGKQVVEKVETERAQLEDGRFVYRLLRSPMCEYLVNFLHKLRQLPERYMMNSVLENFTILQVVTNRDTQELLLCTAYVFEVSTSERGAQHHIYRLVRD
- experimental_protocol: In vitro palmitoylation (TEAD2 autopalmitoylation, streptavidin blot)
- Assay type: biochemical
- assay_setup: compound at 10 μM; Table 3
assay_metric: inhibition at 10 µM (%)

Worked set:
COc1ccc(Nc2cc(Nc3ccc(C4CCCCC4)cc3)cc(C(F)(F)F)c2)nc1C(=O)O : 77
Cc1cc(N(C)c2ccc(C3CCCCC3)cc2)ccc1Nc1ccc(C(=O)N2CC(C(N)=O)C2)cc1C(=O)O : 81
Cc1cc(C(=O)Nc2ccc(C3CCCCC3)cc2)ccc1Nc1cccc(C(=O)O)n1 : 55

(I) COc1ccc(Nc2ccc(N(C)c3ccc(C(F)(F)F)cc3)cc2F)c(C(=O)O)c1
(II) COc1ccc(Nc2ccc(Oc3ccc(C(F)(F)F)cc3Cl)nc2)c(C(=O)O)c1
Query block: Lab note: check whether I or II has the lower measured inhibition at 10 µM. Your choice should be expressed through its label.
Result block: II

====

- target: TEAD2 (Homo sapiens (Human), UniProt Q15562)
- experimental_protocol: In vitro palmitoylation (TEAD2 autopalmitoylation, streptavidin blot)
- Format: biochemical
- assay_setup: compound at 10 μM; Table 2
assay_metric: inhibition at 10 µM (%)

CC1(C)OC(C(=O)O)C(C(=O)Nc2cc(Nc3ccc(C45CC6CC(CC(C6)C4)C5)cc3Cl)cc(C(F)(F)F)c2)O1 (stereo not drawn) [Compound 120] : 79

(a) O=C(O)Cn1ccc2cc(Nc3ccc(C45CC6CC(CC(C6)C4)C5)cc3Cl)ccc21 [Compound 130]
(b) O=C(NCc1ccc(C23CC4CC(CC(C4)C2)C3)cc1)c1cccc(Nc2ccccc2C(=O)O)c1 [Compound 268]
Query block: Min inhibition at 10 µM? a | b Indicate your choice by writing its label.
Result block: b

(1) N#Cc1ccccc1Nc1ccc(Nc2ccc(C34CC5CC(CC(C5)C3)C4)cc2Cl)cc1 [Compound 7]
(2) CN(c1ccc(Oc2ccc(C34CC5CC(CC(C5)C3)C4)cc2)cc1)c1ccccc1C(=O)O [Compound 155]
(3) CN(c1cccc(C(=O)Nc2ccc(C34CC5CC(CC(C5)C3)C4)cc2)c1)c1ccccc1C(=O)O [Compound 230]
Query block: Put the entries in order of inhibition at 10 µM, starting with the largest number. // rank by listing labels in the order requested
Result block: 2, 1, 3
(2: 99%, 1: 30%, 3: 0%)

====

- target: TEAD2 (Homo sapiens (Human))
- experimental_protocol: In vitro palmitoylation (TEAD2 autopalmitoylation, streptavidin blot)
- Assay type: biochemical
- assay_setup: compound at 10 μM; Table 2
assay_metric: inhibition at 10 µM (%)

Previously resolved entries follow.
CC(=O)N(c1ccc(N(C(C)=O)c2ccccc2C(=O)O)cc1)c1ccc(C23CC4CC(CC(C4)C2)C3)cc1 : 20
O=C(Nc1ccccc1C(=O)O)c1ccc(Nc2ccc(C34CC5CC(CC(C5)C3)C4)cc2)cc1 : 100
CN(c1ccc(C#Cc2ccc(C34CC5CC(CC(C5)C3)C4)cc2)cc1)c1ccccc1C(=O)O : 85

(P) COc1ccc(Nc2ccc(N(C)c3ccc(C(F)(F)F)cc3)cc2)c(C(N)=O)c1
(Q) O=C(NC12CC3CC(CC(C3)C1)C2)c1ccc(Nc2ccc(Nc3ccccc3C(=O)O)cc2)cc1
Query block: Between the two listed entries P and Q , which has its inhibition at 10 µM at the higher number? Pick one and reply with its label.
Result block: Q

(A) O=C(O)c1cnccc1Nc1ccc(Nc2ccc(C34CC5CC(CC(C5)C3)C4)cc2Cl)cc1
(B) O=C(O)c1cccnc1Nc1cn(Cc2ccc(C34CC5CC(CC(C5)C3)C4)cc2Cl)cn1
Query block: Of A and B , which shows the smaller inhibition at 10 µM value? Mark your selection by writing its label.
Result block: B
(B: 0%, A: 63%)

(P) O=C(O)c1ccccc1Nc1ccc(Nc2ccc(C34CC5CC(CC(C5)C3)C4)cc2Cl)cc1
(Q) CCCCN(c1ccccc1)c1ccc(Nc2ccc(Nc3cccc(C(=O)O)n3)cc2)cc1
Query block: Which of the two gives a bigger number for inhibition at 10 µM: P or Q ? // return label of chosen record
Result block: P
(P: 99%, Q: 49%)

====

- target: UniProt:Q15562
- experimental_protocol: In vitro palmitoylation (TEAD2 autopalmitoylation, streptavidin blot)
- Type: biochemical
- assay_setup: compound at 10 μM; Table 3
assay_metric: inhibition at 10 µM (%)

Before answering, review these 2 worked examples.
COc1ccc(Nc2cnc(N(C)c3ccc(C4CCCCC4)cc3)nc2)c(C(=O)O)c1 [CP-594] : 46
COc1ccc(Nc2cnc(N(C)c3ccc(C(F)(F)F)cc3)nc2)c(C(=O)O)c1 [CP-602] : 5

(A) COc1ccc(Nc2ccc(N(C)c3ccc(OC(F)(F)F)cc3)cc2C)c(C(=O)O)c1 [CP-590]
(B) CNC(=O)c1nc(Nc2ccc(N(C)c3ccc(C4CCCCC4)cc3)cc2C)ccc1S(=O)(=O)NC [CP-653]
(C) Cc1cc(N(C)c2ccc(C3CCCCC3)cc2)ccc1Nc1ccc(NC2CCOCC2)cc1C(=O)O [CP-620]
(D) COc1ccc(Nc2ccc(Oc3ccc(OC(F)(F)F)cc3Cl)nc2)c(C(=O)O)c1 [CP-600]
Query block: Ordering criterion: inhibition at 10 µM; begin with the maximum. Reply with the item labels sorted in the order that was asked for.
Result block: A, D, B, C

(A) Cc1ccc(Nc2ccc(N(C)c3ccc(C4CCCCC4)cc3)cc2C)c(C(=O)O)c1 [CP-631]
(B) Cc1cc(N(C)c2ccc(C3CCCCC3)cc2)ccc1Nc1ccc(CN(C)C)cc1C(=O)O [CP-640]
Query block: Between A and B , which one shows the larger inhibition at 10 µM value? I would appreciate it if you answered with the label of your choice.
Result block: A
(A: 81%, B: 20%)

(a) COc1ccc(Nc2ccc(Oc3ccc(C45CC6CC(C)(CC(C)(C6)C4)C5)cc3Cl)cc2F)c(C(=O)O)c1 [CP-570]
(b) COc1ccc(Nc2ccc(N(C)c3ccc(C4CCN(C)CC4)cc3)cc2)c(C(=O)O)c1 [CP-582]
Query block: // which entry has the larger inhibition at 10 µM value, a or b ? Bench note: the answer is the label of the chosen record.
Result block: a
(a: 73%, b: 0%)

====

- target: TEAD2 (Homo sapiens (Human), UniProt Q15562)
- experimental_protocol: In vitro palmitoylation (TEAD2 autopalmitoylation, streptavidin blot)
- Assay type: biochemical
- assay_setup: compound at 10 μM; Table 2
assay_metric: inhibition at 10 µM (%)

CN(c1ccc(C23CC4CC(CC(C4)C2)C3)cc1)c1cccc(N(C)c2ncccc2C(=O)O)c1 : 99
O=C(O)Cn1ccc2ccc(Nc3ccc(C45CC6CC(CC(C6)C4)C5)cc3Cl)cc21 : 86
CN(c1ccc(C23CC4CC(CC(C4)C2)C3)cc1)c1ccc(N(C)c2ccccc2C(=O)O)cn1 : 84

====

- target: TEAD2 (Homo sapiens (Human))
- experimental_protocol: In vitro palmitoylation (TEAD2 autopalmitoylation, streptavidin blot)
- Format: biochemical
- assay_setup: compound at 10 μM; Table 2
assay_metric: inhibition at 10 µM (%)

O=C(Cc1ccc(Nc2ccc(C34CC5CC(CC(C5)C3)C4)cc2)cc1)Nc1ccccc1C(=O)O : 90
CN(C(=O)c1ccc(Nc2cccc(C(=O)O)n2)cc1)c1ccc(C23CC4CC(CC(C4)C2)C3)cc1 : 52
O=C(O)c1cccc(Nc2ccc(Oc3ccc(C45CC6CC(CC(C6)C4)C5)cc3Cl)cc2)n1 : 95
O=C(Cc1ccc(Nc2ncccc2C(=O)O)cc1)Nc1ccc(C23CC4CC(CC(C4)C2)C3)cc1 : 71
